- Tested on: MDA-MB-453
measured-property: GI50 (nM)

Below, each entry is followed by its recorded GI50 result.
INSERT INTO results (structure_smiles, measurement_unit, value_observed) VALUES
  ('CC[C@@]1(O)C(=O)OCc2c1cc1n(c2=O)Cc2cc3c(CN(C)C)c(O)ccc3nc2-1', 'nM', 92.3),
  ('COc1cccc2c1C(=O)c1c(O)c3c(c(O)c1C2=O)C[C@@](O)(C(=O)CO)C[C@@H]3O[C@H]1C[C@H](N)[C@H](O)[C@H](C)O1', 'nM', 158);

[A] CC(=O)O[C@H]1C(=O)[C@@]2(C)[C@H]([C@H](OC(=O)c3ccccc3)[C@]3(O)C[C@H](OC(=O)[C@H](O)[C@@H](NC(=O)c4ccccc4)c4ccccc4)C(C)=C1C3(C)C)[C@]1(OC(C)=O)CO[C@@H]1C[C@@H]2O
[B] CNC(=O)c1cc(Oc2ccc(NC(=O)Nc3ccc(Cl)c(C(F)(F)F)c3)cc2)ccn1
[C] COc1ccc(Oc2cc(C)c(-c3csc(NC(=O)c4ccncc4)n3)c(C)c2)cc1
Would you mind ranking these compounds by ascending GI50? Could you list the labels in the order requested?
A, C, B
(A: 1.42 nM, C: 23.6 nM, B: 2520 nM)
